From: patent US8450314B2

Quick reference: pIC50 of the listed items.
- testTarget: p38α (Homo sapiens)
- Sequence (Q16539 whole entry): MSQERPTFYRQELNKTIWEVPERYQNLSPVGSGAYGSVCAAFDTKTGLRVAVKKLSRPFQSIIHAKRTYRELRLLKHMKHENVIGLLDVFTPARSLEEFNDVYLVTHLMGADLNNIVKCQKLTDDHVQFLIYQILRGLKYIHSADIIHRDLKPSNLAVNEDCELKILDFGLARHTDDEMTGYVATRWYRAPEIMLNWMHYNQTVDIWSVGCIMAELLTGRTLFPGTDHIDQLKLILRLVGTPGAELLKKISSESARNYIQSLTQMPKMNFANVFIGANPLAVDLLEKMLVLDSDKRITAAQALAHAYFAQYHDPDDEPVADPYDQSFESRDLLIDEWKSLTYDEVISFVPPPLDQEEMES
- procedureDetails: p38 Kinase Assay (ATF-2 phosphorylation ELISA)
- settings: human recombinant p38 activated with MKK6; 2 h preincubation; ATP 250 μM; 1% DMSO; read-out: p38α inhibition
pIC50: −log10 of the molar value.

[[record]]
compound = "NC(=O)C(c1ccc(Sc2ccccc2CNC(=O)c2cc(F)cc(N3CCOCC3)c2)nn1)c1c(Cl)cccc1Cl (centres unmarked)"
reportedvalue = "> 8.00"


Now look at this one.
query: What measured pIC50 goes with O=C(NCc1ccccc1Sc1ccc2c(-c3c(Cl)cccc3Cl)c(=O)ncn2n1)c1cc(F)cc(N2CCOCC2)c1 ?
result: > 7.00
